experiment: in vivo; settings: male, NODSCID 1L2RγKO, mouse, iv, total radioactivity, Intestine uptake
result.type: tissue uptake at 1 h (%ID/g)

>>> recorded_number("O=C(O)CCCCC(NC(=O)N[C@@H](CCCCNC(=O)[C@H](Cc1c2ccccc2cc2ccccc12)NC(=O)[C@H]1CC[C@H](CNC(=O)CN2CCN(CC(=O)O)CCN(CC(=O)O)CCN(CC(=O)O)CC2)CC1)C(=O)O)C(=O)O (single isomer, unassigned) [68Ga-HTK03189A, metal not drawn]")
0.31
>>> recorded_number("O=C(O)CN1CCN(CC(=O)O)CCN(CC(=O)NC[C@H]2CC[C@H](C(=O)N[C@@H](Cc3c4ccccc4cc4ccccc34)C(=O)NCCCC[C@H](NC(=O)N[C@@H](C[C@H](F)C(=O)O)C(=O)O)C(=O)O)CC2)CCN(CC(=O)O)CC1 [68Ga-HTK04040, metal not drawn]")
0.53
>>> recorded_number("O=C(O)COC[C@H](NC(=O)N[C@@H](CCCCNC(=O)[C@H](Cc1c2ccccc2cc2ccccc12)NC(=O)[C@H]1CC[C@H](CNC(=O)CN2CCN(CC(=O)O)CCN(CC(=O)O)CCN(CC(=O)O)CC2)CC1)C(=O)O)C(=O)O [68Ga-HTK03187, metal not drawn]")
0.23
>>> recorded_number("O=C(O)CCC[C@H](NC(=O)N[C@@H](CCCCNC(=O)[C@H](Cc1c2ccccc2cc2ccccc12)NC(=O)c1ccc(NC(=O)CN2CCN(CC(=O)O)CCN(CC(=O)O)CCN(CC(=O)O)CC2)cc1)C(=O)O)C(=O)O [68Ga-HTK04041, metal not drawn]")
0.19
>>> recorded_number("O=C(O)CCC[C@H](NC(=O)N[C@@H](CCCCNC(=O)[C@H](Cc1cccc(I)c1)NC(=O)[C@H]1CC[C@H](CNC(=O)CN2CCN(CC(=O)O)CCN(CC(=O)O)CCN(CC(=O)O)CC2)CC1)C(=O)O)C(=O)O [68Ga-HTK04053, metal not drawn]")
0.15
>>> recorded_number("O=C(O)CSC[C@H](NC(=O)N[C@@H](CCCCNC(=O)[C@H](Cc1c2ccccc2cc2ccccc12)NC(=O)[C@H]1CC[C@H](CNC(=O)CN2CCN(CC(=O)O)CCN(CC(=O)O)CCN(CC(=O)O)CC2)CC1)C(=O)O)C(=O)O [68Ga-HTK03177, metal not drawn]")
0.21
>>> recorded_number("O=C(O)CCC[C@H](NC(=O)N[C@@H](CCCCNC(=O)[C@H](Cc1ccc2ccccc2c1)NC(=O)[C@H]1CC[C@H](CNC(=O)CN2CCN(CC(=O)O)CCN(CC(=O)O)CCN(CC(=O)O)CC2)CC1)C(=O)O)C(=O)O [68Ga-HTK03169, metal not drawn]")
0.23
>>> recorded_number("O=C(O)CCC[C@H](NC(=O)N[C@@H](CCCCNC(=O)[C@H](Cc1c2ccccc2cc2ccccc12)NC(=O)Cc1ccc(CNC(=O)CN2CCN(CC(=O)O)CCN(CC(=O)O)CCN(CC(=O)O)CC2)cc1)C(=O)O)C(=O)O [68Ga-HTK04036, metal not drawn]")
0.41
